# assay system: T1, recombinant human CD63 extracellular loop 2 expressed with a C-terminal human Fc tag (human)
# T1 construct: also called hCD63 EC loop 2-hFc; human CD63 EC loop 2-Fc
# T1 sequence (chain, as listed by the source limits assumed): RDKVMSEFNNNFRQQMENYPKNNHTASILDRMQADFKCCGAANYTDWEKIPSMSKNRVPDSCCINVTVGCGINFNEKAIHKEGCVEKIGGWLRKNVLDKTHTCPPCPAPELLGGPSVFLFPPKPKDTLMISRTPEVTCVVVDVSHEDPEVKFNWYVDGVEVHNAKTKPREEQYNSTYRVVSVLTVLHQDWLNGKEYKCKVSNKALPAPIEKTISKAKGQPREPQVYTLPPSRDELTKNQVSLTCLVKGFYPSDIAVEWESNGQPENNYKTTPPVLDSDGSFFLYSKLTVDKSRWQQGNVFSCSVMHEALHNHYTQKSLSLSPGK
# test description: SPR Biacore, mAb captured, 25C
quantity kind: koff (s⁻¹)
Answers are plain numbers, in s⁻¹.

H2M12450N (antibody, V domains shown, also called H2aM12450N; mAb12450) VH: QVQLQESGPKVVKPSETLSLTCTVSGGSISSYYWNWIRQSPGKGLEWIGYTKRGYTDYNPSLRSRVTISEDTSKNQFSLRISSVTAADTAVYYCAQMGWGSHAFDMWGQGTMVAVSS VL: EIVLTQSPGTLSLSPGERATLSCRASQSVNSRYLAWYQQKPGQAPRLLIYGASSRATGIPDRCSGSGSGTDFTLTISRLEPEDFAVYYCQQYGSSPWTFGQGTKVEIK | 4.66e-05
H1M12386N (antibody, V domains shown) VH: QVQLEESGGGVVKAGGSLRLSCVASGFTFSDYYINWIRQAPGKGLEWVSYINNGGYTIYYADSVKGRFTMSRDNAKNSVYLEMNGLRAEDTAFYYCVRDPRSYYGFDYWGQGTLVTVSS VL: DIQMTQSPSSLSASVGDRVTITCRASQSISSYLNWNQQKPGKAPKLLIYVASSLQSGVPSRFSGSGSGTDFTLTISGLQPEDFAPYYCQQSYITPPITFGQGTRLDIK | 0.000113

Alright, here's another binder for you.
Query: Returns the measured koff for the input binder. Input: H1M12388N (antibody, V domains shown) VH: QVQLEESGGGVVKAGGSLRLSCAASGFTFSDYYINWIRQAPGKGLEWVSYINNGGYTIYYADSVKGRFTMSRDNAKNSVYLQMNGLRAEDTAFYYCVRDPRSYYGFDYWGQGTLVTVSS VL: DIQMTQSPSSLSASVGDRVTITCRASQSISRFLHWYQQKPGKAPKLLIYGASSLQSGVPSRFSGSGSGTDFTLTISTLQPEDFATYYCQQSYSTPPITFGQGTRLEIK
Result: 0.000173

Taken from patent US20210079109A1.
